- System: biotinyl-Val-oxazolone
- test.summary: self-aminoacylation, catalytic enhancement (BVO) (fold over background); higher = more active; k-Seq, kA / k0A0; sequences stand for … in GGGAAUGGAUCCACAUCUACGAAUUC…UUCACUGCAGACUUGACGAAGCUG
This sample holds only a part of the variants without activity.
endpoint.label: self-aminoacylation
When you answer, write just the number.

1) AUUACCCUGGUAAUCGAGUCA [Fam2.1 aminoacylation ribozyme variant]: 0.838
2) CUAUUUCAAACAAUCGGUCGG [Fam1A.1 aminoacylation ribozyme variant]: 0.868
3) AUUACCCAGGUCAUGGAGUGA [Fam2.1 aminoacylation ribozyme variant]: 3.01
4) CUACUUCAAACUAUGGGUCUG [Fam1A.1 aminoacylation ribozyme variant]: 0.813
5) AUUACCCUGGUGAACGAGUGA [Fam2.1 aminoacylation ribozyme variant]: 1.65
6) AUGACCCUGGACAUCGAGUGA [Fam2.1 aminoacylation ribozyme variant]: 2.11

Fill in the blank: the reported self-aminoacylation of AAGUUUACUAAUAUUCGCAAG [Fam3.1 aminoacylation ribozyme variant] is ____. 1.66

Look up self-aminoacylation for this sequence: AUUAUACUGGUCAUCGAGUGA [Fam2.1 aminoacylation ribozyme variant] 2.56

Using the record for ACUCACCUAUGUCAUCGGGUG [Fam2.2 aminoacylation ribozyme variant] , report its self-aminoacylation. 4.18

Sample CUACUUCAAACGAGCGGUCUG [Fam1A.1 aminoacylation ribozyme variant] — what was its self-aminoacylation? 1.02

Which self-aminoacylation is reported for this sequence? CUUACCCUGGUCAUUGAGUGA [Fam2.1 aminoacylation ribozyme variant] 3.81

Value lookup for self-aminoacylation; key = AUGCACCUAGGUUAUCGGGUG [Fam2.2 aminoacylation ribozyme variant] 3.11

Fill blank: measured self-aminoacylation of the sequence AGGUUUGCUAAUAGUCGCAGG [Fam3.1 aminoacylation ribozyme variant] is ____. 1.52

Record request: self-aminoacylation value, item AUUACCCGGAUCAUCGAGUGA [Fam2.1 aminoacylation ribozyme variant] 4.04

self-aminoacylation lookup needed for AUUCACCAGGGUCAUCGGGUG [Fam2.2 aminoacylation ribozyme variant] , thanks. 5.45

Quick one: self-aminoacylation of AUUCAUCUAGGUCAUAGGGUG [Fam2.2 aminoacylation ribozyme variant] ? 1.87

Given UUUACCCCGGUCAUCGAGUGA [Fam2.1 aminoacylation ribozyme variant] , state its recorded self-aminoacylation. 3.64

Recorded self-aminoacylation of CUACUUCAAACAAACGGUCUU [Fam1A.1 aminoacylation ribozyme variant] , please. 0.901

Values from the supplement of paper PMC9233669
